- METHOD: Half-life and clearance analysis from early clinical studies by CYP2C19 metabolizer phenotype
- Format: in vivo, human
- ASSAY CONDITIONS: human, in vivo, oral, CYP2C19 normal metabolizers; read-out: clearance rate
READOUT NAME: clearance

What value of clearance has been recorded for this entry: `CC(C)n1c(=O)cc(N[C@@H](C)c2ccccc2)[nH]c1=O`
10 to 100 mL/min

====

- METHOD: API thermodynamic solubility
- Format: physicochemical
- ASSAY CONDITIONS: EtOAc, organic solvent or mixture, thermodynamic from solid
READOUT NAME: solubility thermodynamic
Note: a bare number is incomplete; add the unit.

What value of solubility thermodynamic has been recorded for this entry: `CC(C)n1c(=O)cc(N[C@@H](C)c2ccccc2)[nH]c1=O`
1000 µg/mL

FYI, the data here is from patent US20260207600A1.
